The measured values listed here are drawn from the supplement of paper PMC9732359.

measurement notes: protein stability index of a GFP-peptide fusion (yeast GPS) (PSI 1-4); higher = more stable; sorted into four equal gates, so the index is relative within each strain
experimental conditions: san1∆
Assign class 1 to entries whose protein stability index meets or exceeds 3; assign class 0 to the rest.

Example entries begin here.
{"sequence text": "ILNSYGVLKPDITFFGE [SIR2]", "assigned category": "class 1"}
{"sequence text": "ILAAAHRDAYSGGSVNL [PRE2]", "assigned category": "class 0"}
{"sequence text": "LGPGIYCDPNTQEIRPV [RRP40]", "assigned category": "class 0"}
{"sequence text": "FAKFIHHIHHFEKKELQ [IRR1]", "assigned category": "class 0"}
{"sequence text": "ANVFRLENQKDLVIVDE [MTW1]", "assigned category": "class 1"}

Kindly consider the entry below.
Test whether the sequence ESNRQSVIVDSKVTVPP [ESC2] records protein stability index of 3 or higher.
class 0
